Quick list: cAMP assay: Efficacy GIPR per entry.
- assayed-target: T1, human GIPR (glucose-dependent insulinotropic polypeptide receptor) (human, UniProt P48546 22-466)
- T1 sequence (looked up): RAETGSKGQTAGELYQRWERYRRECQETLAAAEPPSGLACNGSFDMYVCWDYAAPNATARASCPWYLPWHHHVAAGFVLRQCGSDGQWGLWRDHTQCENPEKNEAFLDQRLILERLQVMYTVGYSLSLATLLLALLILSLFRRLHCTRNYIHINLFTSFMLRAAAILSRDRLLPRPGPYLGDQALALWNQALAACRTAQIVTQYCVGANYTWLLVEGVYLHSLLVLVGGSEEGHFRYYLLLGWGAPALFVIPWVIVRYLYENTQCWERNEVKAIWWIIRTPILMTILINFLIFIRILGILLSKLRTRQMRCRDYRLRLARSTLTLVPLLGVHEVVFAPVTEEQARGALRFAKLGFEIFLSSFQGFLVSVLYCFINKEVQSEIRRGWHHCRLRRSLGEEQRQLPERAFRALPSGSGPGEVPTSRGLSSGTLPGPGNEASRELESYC
- experiment-notes: cell-based or functional assay
Where no end group is shown, it is not given here. The star is where a group is joined. Palmitoyl = CCCCCCCCCCCCCCCC(=O)*
Note: unit % is implicit; provide only the numeric part.

Example entries and their recorded answers appear below.
INSERT INTO results (binder, readout, measured_number) VALUES
  ('HADGTFISDYSTILDKLAARDFINWLIQTKITK(C16 fatty acid) [Compound no. 58]', 'cAMP assay: Efficacy GIPR', 74),
  ('Palmitoyl-HADGTFISDYSTILDNLAARDFINWLIATKITKNDWKHNITQ [Compound no. 52]', 'cAMP assay: Efficacy GIPR', 96);

Note: attention shifts to another entry.
Challenge: Which cAMP assay: Efficacy GIPR value is on record for Palmitoyl-HADGTFISDYSTILDNLAARDFINWLIQTKITKAEWKHAITQ [Compound no. 49] ?
Response given: 105
